Target: UniProt P10828
Sequence (P10828 whole entry): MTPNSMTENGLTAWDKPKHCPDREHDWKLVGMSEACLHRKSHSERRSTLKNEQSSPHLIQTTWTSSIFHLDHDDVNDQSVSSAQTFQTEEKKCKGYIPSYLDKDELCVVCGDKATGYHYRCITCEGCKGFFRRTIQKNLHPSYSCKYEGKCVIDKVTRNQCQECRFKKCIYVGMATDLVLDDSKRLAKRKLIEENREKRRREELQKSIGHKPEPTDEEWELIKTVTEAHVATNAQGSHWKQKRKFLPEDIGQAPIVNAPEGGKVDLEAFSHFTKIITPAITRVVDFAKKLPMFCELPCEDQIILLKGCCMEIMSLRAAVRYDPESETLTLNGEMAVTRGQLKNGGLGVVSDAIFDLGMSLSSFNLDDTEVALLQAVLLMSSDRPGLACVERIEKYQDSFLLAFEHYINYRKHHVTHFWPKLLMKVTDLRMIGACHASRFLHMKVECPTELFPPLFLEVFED
Assay: Transcription activation test of human thyroid hormone receptor β1 (luciferase reporter in 293T cells)
Conditions: EC50 of transcription activation on TRβ1, 293T cells, luciferase activity after 24 hr; read-out: TRβ
Would you mind telling me the reported EC50 of each entry?
Answer with the value and then the unit.

Example entries and their recorded answers appear below.
{"compoundSmiles": "Cc1cc(CC(=O)O)c(C)c(C)c1Cc1ccc(O)c(C2CCCCC2)n1", "measuredEndpoint": "EC50", "measuredValue": "4 nM"}
{"compoundSmiles": "Cc1cc(NCC(=O)O)c(C)c(C)c1Cc1ccc(O)c(C2CCCCC2)n1", "measuredEndpoint": "EC50", "measuredValue": "4 nM"}
{"compoundSmiles": "Cc1cc(OCc2noc(=O)[nH]2)cc(C)c1Cc1ccc(O)c(C2CCCCC2)n1", "measuredEndpoint": "EC50", "measuredValue": "0.2 nM"}
{"compoundSmiles": "Cc1cc(NC(=O)C(=O)O)c(C)c(C)c1Cc1ccc(O)c(C2CCCCC2)n1", "measuredEndpoint": "EC50", "measuredValue": "4 nM"}
{"compoundSmiles": "CCc1cc(OCC(=O)O)c(C)c(C)c1Cc1ccc(O)c(-c2cccc(F)c2)n1", "measuredEndpoint": "EC50", "measuredValue": "0.7 nM"}
{"compoundSmiles": "Cc1cc(OCC(=O)O)c(C)c(C)c1Oc1ccc(O)c(C2CCCCC2)n1", "measuredEndpoint": "EC50", "measuredValue": "30 nM"}

Now examine the next entry.
Recorded result, "Cc1cc(-n2nc(C#N)c(=O)[nH]c2=O)cc(C)c1Cc1ccc(O)c(-c2ccccc2)n1" , EC50: 4 nM
